- protocol-notes: Aqueous solubility
- Type: physicochemical
- setup-conditions: pH 1.2
The entries below are paired with their reported aqueous solubility at pH 1.2.
measured-parameter: aqueous solubility at pH 1.2

* COC(=O)Cc1cnc(C2=CCN(C(=O)Nc3ccc(C(F)(F)F)cc3)CC2)c(Cl)c1 [Compound F6] | > 50 μM
* O=C(Nc1ccc(S(=O)(=O)C(F)(F)F)cc1)N1CCC(F)(c2ncccc2Cl)CC1 [Compound 210] | 2.0 μM
* O=C(Nc1ccc(C(F)(F)F)c(F)c1)N1CCC(F)(c2ncc([C@H](O)CO)cc2Cl)CC1 [Compound F1] | > 50 μM
* CN(C)Cc1cnc(C2=CCN(C(=O)Nc3ccc(C(F)(F)F)cc3)CC2)c(Cl)c1 [Compound H6] | > 50 μM
* O=C(Nc1ccc(C(F)(F)F)cc1)N1CC=C(c2ncc([C@H](O)CO)cc2Cl)CC1 [Compound Z1] | > 50 μM

====

- protocol-notes: Aqueous solubility
- Type: physicochemical
- setup-conditions: pH 6.8
The entries below are paired with their reported aqueous solubility at pH 6.8.
measured-parameter: aqueous solubility at pH 6.8 (μM)

- O=C(Nc1ccc(C(F)(F)F)c(F)c1)N1CCC(F)(c2ncc([C@H](O)CO)cc2Cl)CC1 [Compound F1]: 22.6
- O=C(Nc1ccc(C(F)(F)F)cc1)N1CCC(F)(c2ncc([C@H](O)CO)cc2Cl)CC1 [Compound N1]: 28.0

====

The entries below are paired with their reported aqueous solubility at pH 1.2.
- protocol-notes: Aqueous solubility
- Assay type: physicochemical
- setup-conditions: pH 1.2
measured-parameter: aqueous solubility at pH 1.2

• O=C(Nc1ccc(C(F)(F)F)cc1)N1CC=C(c2ncccc2Cl)CC1 = < 0.1 μM
• O=C(Nc1ccc(OC(F)(F)F)cc1)N1CCC(F)(c2ncc([C@H](O)CO)cc2Cl)CC1 = > 50 μM
• O=C(Nc1ccc(S(=O)(=O)C(F)(F)F)cc1)N1CCC(F)(c2ncc([C@H](O)CO)cc2Cl)CC1 = > 50 μM
• O=C(Nc1ccc(C(F)(F)F)c(F)c1)N1CCC(F)(c2ncccc2Cl)CC1 = 9.3 μM
• O=C(Nc1ccc(C(F)(F)F)c(F)c1)N1CC=C(c2ncc([C@H](O)CO)cc2Cl)CC1 = > 50 μM
• O=C(Nc1ccc(C(F)(F)F)cc1)N1CC=C(c2ncc(CO)cc2Cl)CC1 = > 50 μM
• O=C(Nc1ccc(C(F)(F)F)cc1)N1CCC(F)(c2ncc([C@H](O)CO)cc2F)CC1 = > 50 μM
